- Target desc: acetylcholine muscarinic M1 receptor (Homo sapiens)
- Construct: expressed in transfected cells; host or cells: CHOnfat (CHO cells; also called CHOK1/hM1)
- Sequence (P11229 whole entry): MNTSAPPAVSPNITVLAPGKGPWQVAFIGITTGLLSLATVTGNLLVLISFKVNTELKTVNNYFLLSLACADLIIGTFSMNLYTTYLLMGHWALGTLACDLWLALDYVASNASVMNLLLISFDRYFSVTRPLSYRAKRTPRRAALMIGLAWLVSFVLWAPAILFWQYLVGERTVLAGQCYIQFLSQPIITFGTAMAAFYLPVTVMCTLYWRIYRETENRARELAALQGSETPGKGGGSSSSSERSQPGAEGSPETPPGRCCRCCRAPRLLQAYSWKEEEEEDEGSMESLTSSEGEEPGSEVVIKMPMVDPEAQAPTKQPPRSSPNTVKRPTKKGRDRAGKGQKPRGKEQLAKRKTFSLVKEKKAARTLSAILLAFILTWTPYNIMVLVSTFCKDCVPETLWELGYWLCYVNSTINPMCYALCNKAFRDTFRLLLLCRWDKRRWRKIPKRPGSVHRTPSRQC
- Procedure summary: Muscarinic FLIPR intracellular calcium assay for M1 positive allosteric modulator activity in CHOnfat/hM1 cells
- Format: cell-based
- Protocol conditions: 4 min preincubation, then EC20 acetylcholine (3 nM final), calculated from FLIPR values, read-out: IP Value (inflection point)
Property label: EC50 (nM)

> print(dat)
                                   compound  recorded.value
1  Cc1ccccc1-n1nc2c3ccccc3n(Cc3ccc(-c4cnn(C)c4)nc3)nc-2c1=O             144
2  Cc1ccc(-c2ccc(Cn3nc4c(=O)n(-c5cccc(C)c5C)nc-4c4ccccc43)cn2)cn1              29
3  O=c1c2nn(Cc3ccc(-n4cccn4)cc3)c3ccccc3c-2nn1-c1ccccc1F              28
4  Cc1ccccc1-n1nc2c3ccccc3n(Cc3ccc(N4CCOCC4)nc3)nc-2c1=O            1370

1: O=c1c2nn(Cc3ccc(-n4cccn4)cc3)c3c(Cl)cccc3c-2nn1[C@@H]1CCCC[C@H]1O
2: C[C@H]1CCOC[C@@H]1n1nc2c3ccccc3n(Cc3ccc(-n4cccn4)cc3)nc-2c1=O (single isomer, unassigned) [Example 74]
Which value of EC50 is greater, the one for 1 or the one for 2 ? Give the label of your selection.
2
